All figures here come from patent US11149046B2.

Test system: PC3
assayEndpoint: pIC50
Interpret pIC50 as the negative base-10 log of the concentration measured in mol/L.

Bench note, PC3: entry O=C(CCC(=O)N(CCCCNC(=O)c1cccc(O)c1O)CCCNC(=O)c1cccc(O)c1O)NCCCCCN(O)C(=O)CCCC(=O)NC(C(=O)NC1C(=O)N2C(C(=O)O)=C(Cl)CCC12)c1ccccc1 (stereo not shown) , its pIC50 = 4.82

* * *

Test system: Hela
pIC50: −log10 of the molar value.
assayEndpoint: pIC50

Bench note, Hela: entry O=C(CCC(=O)N(CCCCNC(=O)c1cccc(O)c1O)CCCNC(=O)c1cccc(O)c1O)NCCCCCN(O)C(=O)CCCC(=O)NC(C(=O)NC1C(=O)N2C(C(=O)O)=C(Cl)CCC12)c1ccccc1 (stereo not shown) [MG-1-227] , its pIC50 = < 4.70

* * *

MIC by entry:
Tested on: P. aeruginosa KW799/wt
Experiment: MIC determination
Format: cell-based, Pseudomonas aeruginosa
Settings: Pseudomonas aeruginosa, KW799/WT, Table 5; read-out: MIC
Numbers only here, please. The scale is µM.

O=C(CN(CCCCNC(=O)c1cccc(O)c1O)C(=O)c1cccc(O)c1O)N[C@H](C(=O)N[C@@H]1C(=O)N2C(C(=O)O)=C(Cl)CC[C@H]12)c1ccccc1    0.025

Bench note, P. aeruginosa KW799/wt: entry "CC(=O)Oc1cccc(C(=O)N(CCCCNC(=O)c2cccc(OC(C)=O)c2OC(C)=O)CC(=O)N[C@H](C(=O)N[C@@H]2C(=O)N3C(C(=O)O)=C(Cl)CC[C@H]23)c2ccccc2)c1O" , its MIC = 0.025

Bench note, P. aeruginosa KW799/wt: entry CC1(C)S[C@@H]2[C@H](NC(=O)[C@H](N)c3ccccc3)C(=O)N2[C@H]1C(=O)O [ampicillin, reference compound] , its MIC = 200

Bench note, P. aeruginosa KW799/wt: entry CC(=O)Oc1cccc(C(=O)NCCCCN(CC(=O)N[C@@H](C(=O)N[C@@H]2C(=O)N3C2SC(C)(C)[C@@H]3C(=O)O)c2ccccc2)C(=O)c2cccc(O)c2O)c1OC(C)=O (some centres unmarked) , its MIC = 0.0156

* * *

Test system: strains of Pseudomonas and Acinetobacter
Assay: Antibacterial activity, general statements
Type: cell-based
Settings: general statements of the text
assayEndpoint: antibacterial activity (in words)

CCCCCCCCCC(=O)N[C@@H](Cc1c[nH]c2ccccc12)C(=O)N[C@H](CC(N)=O)C(=O)N[C@@H](CC(=O)O)C(=O)N[C@@H]1C(=O)NCC(=O)N[C@@H](CCCN)C(=O)N[C@@H](CC(=O)O)C(=O)N[C@H](C)C(=O)N[C@@H](CC(=O)O)C(=O)NCC(=O)N[C@H](CO)C(=O)N[C@@H]([C@H](C)CC(=O)O)C(=O)N[C@@H](CC(=O)c2ccccc2N)C(=O)O[C@@H]1C    completely inactive
O=C(O)c1cn(C2CC2)c2cc(N3CCNCC3)c(F)cc2c1=O [ciprofloxacin, reference compound]    completely inactive

* * *

MIC by entry:
System: Pa6
Assay: MIC determination
Format: cell-based, Pseudomonas aeruginosa
Conditions: Pseudomonas aeruginosa; Table 5; read-out: MIC
Numbers only here, please. The scale is µM.

CC(=O)Oc1cccc(C(=O)N(CCCCNC(=O)c2cccc(OC(C)=O)c2OC(C)=O)CC(=O)N[C@H](C(=O)N[C@@H]2C(=O)N3C(C(=O)O)=C(Cl)CC[C@H]23)c2ccccc2)c1O    1.56

Bench note, Pa6: entry "O=C(CN(CCCCNC(=O)c1cccc(O)c1O)C(=O)c1cccc(O)c1O)N[C@H](C(=O)N[C@@H]1C(=O)N2C(C(=O)O)=C(Cl)CC[C@H]12)c1ccccc1" , its MIC = 6
